- assay.overview: Carotenoid content in fish flesh of rainbow trout by HPLC
- Format: in vivo, Oncorhynchus mykiss
- study.conditions: Fermented product division, rainbow trout, 3 months, average of 12 fish
- Experimental: In the examples, the quantification of the carotenoid colorant was performed using high performance liquid chromatography (HPLC). Two columns of Wakosil-II 5 SIL-100 φ4.6×250 mm (produced by Wako Pure Chemical Industries, Ltd.) were connected to each other. […] The colorant was appropriately diluted with the mobile phase and analyzed by HPLC. […] After being thawed, the fish flesh of the 12 fish of each test division was analyzed in terms of the content of each carotenoid compound.
experimental.endpoint: Content in fish flesh

Consider the following illustrative entries.
CC1=C(/C=C/C(C)=C/C=C/C(C)=C/C=C/C=C(C)/C=C/C=C(C)/C=C/C2=C(C)C(=O)CCC2(C)C)C(C)(C)CCC1 ... 0.02 or less mg/kg
CC1=C(/C=C/C(C)=C/C=C/C(C)=C/C=C/C=C(C)/C=C/C=C(C)/C=C/C2=C(C)CCCC2(C)C)C(C)(C)CCC1 ... 0.02 or less mg/kg

Lab note: next molecule to report on.
Given item CC1=C(/C=C/C(C)=C/C=C/C(C)=C/C=C/C=C(C)/C=C/C=C(C)/C=C/C2=C(C)C(=O)[C@@H](O)CC2(C)C)C(C)(C)CCC1=O , the value recorded as its Content in fish flesh is 2.3 mg/kg

###

- assay.overview: Carotenoid content in fish flesh of rainbow trout by HPLC
- Format: in vivo, Oncorhynchus mykiss
- study.conditions: Fermented product division, rainbow trout fish flesh, 3 months
experimental.endpoint: Ratio to astaxanthin

Consider the following illustrative entries.
CC1=C(/C=C/C(C)=C/C=C/C(C)=C/C=C/C=C(C)/C=C/C=C(C)/C=C/C2=C(C)CCCC2(C)C)C(C)(C)CCC1 ... 0.6 or less %
CC1=C(/C=C/C(C)=C/C=C/C(C)=C/C=C/C=C(C)/C=C/C=C(C)/C=C/C2=C(C)C(=O)[C@@H](O)CC2(C)C)C(C)(C)CCC1=O ... 67.6%

Lab note: next molecule to report on.
Given item CC1=C(/C=C/C(C)=C/C=C/C(C)=C/C=C/C=C(C)/C=C/C=C(C)/C=C/C2=C(C)C(=O)CCC2(C)C)C(C)(C)CCC1 , the value recorded as its Ratio to astaxanthin is 0.6 or less %

###

Each entry below carries its recorded Ratio to astaxanthin.
- assay.overview: Carotenoid content in fish flesh of Atlantic salmon by HPLC
- Format: in vivo, Salmo salar
- study.conditions: Fermented product division, Atlantic salmon fish flesh, 12 months
// return numeric value only (unit: %, not printed)

CC1=C(/C=C/C(C)=C/C=C/C(C)=C/C=C/C=C(C)/C=C/C=C(C)/C=C/C2=C(C)C(=O)CCC2(C)C)C(C)(C)CCC1=O ... 9.8
CC1=C(/C=C/C(C)=C/C=C/C(C)=C/C=C/C=C(C)/C=C/C=C(C)/C=C/C2=C(C)C(=O)[C@@H](O)CC2(C)C)C(C)(C)C[C@H](O)C1 ... 4.9
CC1=C(/C=C/C(C)=C/C=C/C(C)=C/C=C/C=C(C)/C=C/C=C(C)/C=C/C2=C(C)C(=O)[C@@H](O)CC2(C)C)C(C)(C)CCC1=O ... 41.5

Lab note: next compound to report on.
Given item CC1=C(/C=C/C(C)=C/C=C/C(C)=C/C=C/C=C(C)/C=C/C=C(C)/C=C/C2=C(C)C(=O)[C@@H](O)CC2(C)C)C(C)(C)C[C@H](O)C1=O , the value recorded as its Ratio to astaxanthin is 100

###

- assay.overview: Carotenoid content in fish flesh of king salmon by HPLC
- Assay type: in vivo, Oncorhynchus tshawytscha
- study.conditions: king salmon (Oncorhynchus tshawytscha), oral, 70.3 mg/kg feed, Synthetic product division, king salmon, flesh frozen 1 month, average of 15 fish
experimental.endpoint: concentration at 3 months (ng/g)
// return numeric value only (unit: ng/g, not printed)

Given item CC1=C(/C=C/C(C)=C/C=C/C(C)=C/C=C/C=C(C)/C=C/C=C(C)/C=C/C2=C(C)C(=O)[C@@H](O)CC2(C)C)C(C)(C)C[C@H](O)C1=O , the value recorded as its concentration at 3 months is 7200

###

- assay.overview: Carotenoid content in fish flesh of silver salmon by HPLC
- Format: in vivo, Oncorhynchus kisutch
- study.conditions: Fermented product division, silver salmon fish flesh, 6 months
- Procedure: In the examples, the quantification of the carotenoid colorant was performed using high performance liquid chromatography (HPLC). Two columns of Wakosil-II 5 SIL-100 φ4.6×250 mm (produced by Wako Pure Chemical Industries, Ltd.) were connected to each other. […] The colorant was appropriately diluted with the mobile phase and analyzed by HPLC. […] From a part of the milled fish flesh, the carotenoid colorant was extracted, and analyzed in terms of the content of each carotenoid compound by HPLC.
experimental.endpoint: Ratio to astaxanthin (%)
// return numeric value only (unit: %, not printed)

Consider the following illustrative entries.
CC1=C(/C=C/C(C)=C/C=C/C(C)=C/C=C/C=C(C)/C=C/C=C(C)/C=C/C2=C(C)C(=O)CCC2(C)C)C(C)(C)CCC1=O ... 1.0
CC1=C(/C=C/C(C)=C/C=C/C(C)=C/C=C/C=C(C)/C=C/C=C(C)/C=C/C2=C(C)C(=O)[C@@H](O)CC2(C)C)C(C)(C)C[C@H](O)C1 ... 23.1
CC1=C(/C=C/C(C)=C/C=C/C(C)=C/C=C/C=C(C)/C=C/C=C(C)/C=C/C2=C(C)C(=O)[C@@H](O)CC2(C)C)C(C)(C)CCC1=O ... 11.5

Lab note: next molecule to report on.
Given item CC1=C(/C=C/C(C)=C/C=C/C(C)=C/C=C/C=C(C)/C=C/C=C(C)/C=C/C2=C(C)C(=O)[C@@H](O)CC2(C)C)C(C)(C)C[C@H](O)C1=O , the value recorded as its Ratio to astaxanthin is 100

###

Each entry below carries its recorded Content in fish flesh.
- assay.overview: Carotenoid content in fish flesh of king salmon by HPLC
- Assay type: in vivo, Oncorhynchus tshawytscha
- study.conditions: Fermented product division, king salmon, 3 months, flesh frozen 1 month, average of 15 fish
// return numeric value only (unit: mg/kg, not printed)

CC1=C(/C=C/C(C)=C/C=C/C(C)=C/C=C/C=C(C)/C=C/C=C(C)/C=C/C2=C(C)C(=O)[C@@H](O)CC2(C)C)C(C)(C)C[C@H](O)C1 ... 0.3

Lab note: next compound to report on.
Given item CC1=C(/C=C/C(C)=C/C=C/C(C)=C/C=C/C=C(C)/C=C/C=C(C)/C=C/C2=C(C)C(=O)[C@@H](O)CC2(C)C)C(C)(C)CCC1=O , the value recorded as its Content in fish flesh is 2.1

###

Each entry below carries its recorded Content in fish flesh.
- assay.overview: Carotenoid content in fish flesh of silver salmon by HPLC
- Assay type: in vivo, Oncorhynchus kisutch
- study.conditions: Fermented product division, silver salmon, 6 months, average of 10 fish

Consider the following illustrative entries.
CC1=C(/C=C/C(C)=C/C=C/C(C)=C/C=C/C=C(C)/C=C/C=C(C)/C=C/C2=C(C)C(=O)CCC2(C)C)C(C)(C)CCC1 ... 0.02 or less mg/kg
CC1=C(/C=C/C(C)=C/C=C/C(C)=C/C=C/C=C(C)/C=C/C=C(C)/C=C/C2=C(C)C(=O)[C@@H](O)CC2(C)C)C(C)(C)CCC1 [3-hydroxyequinenone] ... 0.02 or less mg/kg

Lab note: next molecule to report on.
Given item CC1=C(/C=C/C(C)=C/C=C/C(C)=C/C=C/C=C(C)/C=C/C=C(C)/C=C/C2=C(C)C(=O)CCC2(C)C)C(C)(C)CCC1=O , the value recorded as its Content in fish flesh is 0.1 mg/kg

###

- assay.overview: Carotenoid content in fish flesh of Atlantic salmon by HPLC
- Assay type: in vivo, Salmo salar
- study.conditions: Atlantic salmon (Salmo salar), oral, 79.8 mg/kg feed, Fermented product division, Atlantic salmon, flesh frozen 1 month, average of 20 fish
experimental.endpoint: concentration at 12 months (ng/g)
// return numeric value only (unit: ng/g, not printed)

Given item CC1=C(/C=C/C(C)=C/C=C/C(C)=C/C=C/C=C(C)/C=C/C=C(C)/C=C/C2=C(C)C(=O)[C@@H](O)CC2(C)C)C(C)(C)C[C@H](O)C1=O , the value recorded as its concentration at 12 months is 4100

###

- assay.overview: Carotenoid content in fish flesh of silver salmon by HPLC
- Format: in vivo, Oncorhynchus kisutch
- study.conditions: Fermented product division, silver salmon, 6 months, average of 10 fish
experimental.endpoint: Content in fish flesh (mg/kg)
// return numeric value only (unit: mg/kg, not printed)

CC1=C(/C=C/C(C)=C/C=C/C(C)=C/C=C/C=C(C)/C=C/C=C(C)/C=C/C2=C(C)C(=O)[C@@H](O)CC2(C)C)C(C)(C)CCC1=O ... 1.2

Given item CC1=C(/C=C/C(C)=C/C=C/C(C)=C/C=C/C=C(C)/C=C/C=C(C)/C=C/C2=C(C)C(=O)[C@@H](O)CC2(C)C)C(C)(C)C[C@H](O)C1 , the value recorded as its Content in fish flesh is 2.4

# credit: patent US8999664B2
